- TEST_METHOD_NOTES: Stability of compound in 1 mM GSH at 10 uM incubated for 1 hr by HPLC-ESI-MS analysis
- Format: ADME
REPORTED_ENDPOINT: Stability

Answered examples (9):
1) O=C(Oc1cncc(Cl)c1)c1cc2cc(Cl)ccc2[nH]1 Unstable
2) O=C(Oc1cncc(Cl)c1)c1cccc(-c2ccccc2)c1 Unstable
3) O=C(Oc1cncc(Cl)c1)c1cccc2[nH]ccc12 Stable
4) CC(C)(C)[C@H](NC(=O)C(F)(F)F)C(=O)N1C[C@H]2[C@@H]([C@H]1C(=O)N[C@H](C#N)C[C@@H]1CCNC1=O)C2(C)C Stable
5) COc1cccc(C(=O)Oc2cncc(Cl)c2)c1 Unstable
6) O=C(Oc1cncc(Cl)c1)c1ccc(I)cc1 Unstable
7) COc1ccc(C(=O)Oc2cncc(Cl)c2)cc1Cl Unstable
8) O=C(Oc1cncc(Cl)c1)c1ccc(OCc2ccccc2)cc1F Unstable
9) O=C(Oc1cncc(Cl)c1)c1ccccc1-c1ccccc1 Unstable

Proceed to the following item.
Kindly note the recorded Stability for CCOc1ccc(C(=O)Oc2cncc(Br)c2)c(F)c1 , which is Unstable

====

- System: Severe acute respiratory syndrome-related coronavirus
- TEST_METHOD_NOTES: Inhibition of SARS CoV-1 MPro using Boc-Abu-Tle-Leu-Gln-AMC as substrate incubated for 10 mins by fluorescence based assay
Activity calls are given as the source filed them. No cut-off for these calls is given here.
# valid calls are class 1 (active), class 0 (inactive); nothing else

Look over these answered cases.
1. O=C(Oc1cncc(Cl)c1)c1ccc(Cl)cc1Cl class 1
2. COc1ccc(C(=O)Oc2cncc(Cl)c2)cc1 class 0

Please find the next molecule below.
Prompt: Hi team, can someone confirm the assay call for O=C(Oc1cncc(Cl)c1)c1ccc(-c2ccccc2)cc1 ?
Completion: class 0

====

- MEASURED_ON: UniProt:P0DTD1
pIC50: −log10 of the molar value.
Decision: pIC50 >= 7 yields True, all other cases yield False.

1) O=C(Oc1cncc(Cl)c1)c1cccc(F)c1 True

Switching to the query record.
Prompt: Confirm if pIC50 reported for the compound O=C(Oc1cncc(Br)c1)c1ccccc1 is 7 or above.
Completion: True

====

- TEST_METHOD_NOTES: Cytotoxicity against human Calu-3 cells
- Type: toxicity, cell-based
- CONDITION_DETAILS: Calu-3 cells
REPORTED_ENDPOINT: CC50 (µM)
Answers are plain numbers, in µM.

Documented CC50 of O=C(Oc1cncc(Cl)c1)c1ccc(-c2ccccc2)cc1 : 14.7

====

- System: SARS-CoV-2
- TEST_METHOD_NOTES: microbe, parasite or virus in culture
- CONDITION_DETAILS: Severe acute respiratory syndrome coronavirus 2, Calu-3
REPORTED_ENDPOINT: EC50 (nM)
Answers are plain numbers, in nM.

1) CCOc1ccc(C(=O)Oc2cncc(Cl)c2)c(F)c1 2.68
2) O=C(Oc1cncc(Cl)c1)c1ccc(-c2ccccc2)cc1 58.7
3) COc1ccc(C(=O)Oc2cncc(Cl)c2)cc1 10.8

Looking up COc1ccc(C(=O)Oc2cncc(Br)c2)cc1 , I see its EC50 listed as 1860

====

Please respond with reported IC50 for every item in the list.
- MEASURED_ON: Replicase polyprotein 1ab (Severe acute respiratory syndrome coronavirus 2, UniProt P0DTD1)
- TEST_METHOD_NOTES: Inhibition of full-length SARS CoV-2 MPro expressed in Escherichia coli BL21(DE3) using Boc-Abu-Tle-Leu-Gln-AMC as substrate incubated for 10 mins by fluorescence based assay
Numbers only, in nM.

Some entries whose results are on file:
1. O=C(Oc1cncc(Cl)c1)c1ccc(Cl)cc1Cl 108
2. O=C(Oc1cncc(Cl)c1)c1ccncc1 725
3. CCOc1ccc(C(=O)Oc2cncc(Cl)c2)c(F)c1 47.4
4. COc1ccc(C(=O)Oc2cncc(Cl)c2)cc1Cl 247
5. O=C(Oc1cncc(Cl)c1)c1ccc(OCc2ccccc2)cc1F 322
6. Nc1ccc(C(=O)Oc2cncc(Cl)c2)c(F)c1 943
7. O=C(Oc1cncc(Cl)c1)c1ccc(I)cc1 91.2
8. O=C(Oc1cncc(Cl)c1)c1cc(F)cc(F)c1 38.3
9. O=C(Oc1cncc(Cl)c1)c1ccc(Cl)cc1F 45.7
10. O=C(Oc1cncc(Br)c1)c1ccc(Cl)cc1 95.7

For each listed entry, give its IC50.
1. CCOc1ccc(C(=O)Oc2cncc(Cl)c2)cc1
2. O=C(Oc1cncc(Cl)c1)c1ccc(-c2ccccc2)cc1

Completion:
1. 329
2. 150

For every item in the list below, what is its measured IC50?
1. O=C(Oc1cncc(Cl)c1)c1cccnc1
2. O=C(Oc1cncc(Cl)c1)c1ccc(Br)cc1F
3. CNc1ccc(C(=O)Oc2cncc(Cl)c2)cc1
4. O=C(Oc1cncc(Br)c1)c1ccc(Cl)cc1Cl
5. O=C(Oc1cncc(Br)c1)c1ccccc1Cl
6. O=C(Oc1cncc(Cl)c1)c1cccc(Cl)c1
7. O=C(Oc1cncc(Br)c1)c1ccc(Cl)cc1F
8. COc1ccccc1C(=O)Oc1cncc(Cl)c1

Completion:
1: 758; 2: 34.9; 3: 3940; 4: 84.5; 5: 39.2; 6: 55.1; 7: 35.6; 8: 264

// batch mode: one IC50 value per listed entry
1. COc1cc(F)ccc1C(=O)Oc1cncc(Cl)c1
2. O=C(Oc1cncc(Cl)c1)c1ccccc1Cl
3. COc1ccc(F)c(C(=O)Oc2cncc(Cl)c2)c1F
4. COc1cccc(C(=O)Oc2cncc(Cl)c2)c1
5. COc1c(Cl)ccc(C(=O)Oc2cncc(Cl)c2)c1F
6. Cc1cc(Cl)ccc1C(=O)Oc1cncc(Cl)c1

Completion:
1. 249
2. 60.4
3. 30.3
4. 5.13
5. 70.7
6. 3400

====

- MEASURED_ON: Replicase polyprotein 1ab (Severe acute respiratory syndrome coronavirus 2)
REPORTED_ENDPOINT: pKi
Answers are plain numbers, as −log10 of the molar value.

Reported pKi ( O=C(Oc1cncc(Cl)c1)c1cccs1 ) = 7.09

====

- TEST_METHOD_NOTES: Inhibition of MERS CoV MPro using Boc-Abu-Tle-Leu-Gln-AMC as substrate incubated for 10 mins by fluorescence based assay
- Design: species or system Middle East respiratory syndrome-related coronavirus
REPORTED_ENDPOINT: pIC50
Numbers only, as −log10 of the molar value.

Sure, the documented pIC50 for COc1cccc(C(=O)Oc2cncc(Cl)c2)c1 is 6.95

====

- System: Severe acute respiratory syndrome-related coronavirus
- TEST_METHOD_NOTES: Inhibition of SARS CoV-1 MPro using Boc-Abu-Tle-Leu-Gln-AMC as substrate incubated for 10 mins by fluorescence based assay
Active and inactive are the calls of the source. The rule behind the calls is not given here.
Choose one outcome from this list and give only that: active, inactive

1) O=C(Oc1cncc(Cl)c1)c1ccccc1F active
2) CCOc1ccc(C(=O)Oc2cncc(Cl)c2)c(F)c1 inactive
3) COc1cccc(C(=O)Oc2cncc(Cl)c2)c1 active
4) O=C(Oc1cncc(Cl)c1)c1ccc(I)cc1F inactive
5) O=C(Oc1cncc(Cl)c1)c1ccc(OCc2ccccc2)cc1F inactive

Prompt: What did the test return for O=C(Oc1cncc(Cl)c1)c1ccc(I)cc1 ?
Completion: inactive

Prompt: What call does the record list for COc1ccccc1C(=O)Oc1cncc(Cl)c1 ?
Completion: inactive

Prompt: Would you mind telling me which call this test gave O=C(Oc1cncc(Cl)c1)c1ccc(Cl)c(Cl)c1 ?
Completion: active

Prompt: What is the recorded call for this molecule in the test? O=C(Oc1cncc(Cl)c1)c1ccc(Cl)cc1F
Completion: inactive

Prompt: In this assay, the call recorded for O=C(Oc1cncc(Cl)c1)c1c(F)cccc1F was what?
Completion: inactive

Prompt: Outcome logged for O=C(Oc1cncc(Cl)c1)c1ccc(Br)cc1F in this assay:
Completion: inactive

Prompt: Fill in: this test's call for COc1cccc(C(=O)Oc2cncc(Cl)c2)c1OC is ___
Completion: active

Prompt: I would be grateful if you could indicate the recorded call for O=C(Oc1cncc(Cl)c1)c1cccc(Cl)c1Cl .
Completion: active

====

- MEASURED_ON: Replicase polyprotein 1ab (Severe acute respiratory syndrome coronavirus 2, UniProt P0DTD1)
REPORTED_ENDPOINT: pIC50
Give bare numbers, as −log10 of the molar value.

1. O=C(Oc1cncc(Cl)c1)c1c(F)cccc1F 7.53
2. N#Cc1ccc(C(=O)Oc2cncc(Cl)c2)c(F)c1 7.33
3. COc1ccc(C(=O)Oc2cncc(Cl)c2)c(OC)c1 5.78
4. O=C(Oc1cncc(Cl)c1)c1ccccc1F 7.59
5. COc1cccc(C(=O)Oc2cncc(Cl)c2)c1OC 7.07
6. O=C(Oc1cncc(Cl)c1)c1ccc(Cl)c(Cl)c1 7.02
7. CCOc1ccc(C(=O)Oc2cncc(Br)c2)c(F)c1 6.97
8. O=C(Oc1cncc(Cl)c1)c1ccccc1 7.39

// each listed compound needs a value for pIC50
1. O=C(Oc1cncc(Br)c1)c1ccc(OCc2ccccc2)cc1F
2. O=C(Oc1cncc(Cl)c1)c1ccc(F)cc1

Completion:
6.63
6.92

For each of the compounds below, state pIC50.
1. O=C(Oc1cncc(Cl)c1)c1cccc(Cl)c1Cl
2. COc1cccc(C(=O)Oc2cncc(Br)c2)c1
3. O=C(Oc1cncc(Cl)c1)c1cccc(-c2ccccc2)c1

Completion:
6.90
7.70
6.93

Provide reported pIC50 for each item, in the same order as listed.
1. N=C(N)Nc1ccc(C(=O)Oc2cncc(Cl)c2)cc1
2. O=C(Oc1cncc(Cl)c1)c1ccc(Cl)cc1
3. O=C(Oc1cncc(Br)c1)c1ccccc1F
4. O=C(Oc1cncc(Br)c1)c1ccc(Cl)c(Cl)c1
5. O=C(Oc1cncc(Br)c1)c1ccc(I)cc1F
6. O=C(Oc1cncc(Br)c1)c1cccc(Cl)c1
7. O=C(Oc1cncc(Cl)c1)c1cc(Cl)cc(Cl)c1

Completion:
1. 7.18
2. 6.66
3. 7.97
4. 7.43
5. 7.47
6. 7.30
7. 6.88
